# SYSTEM_TESTED: GST-BAI-1 Associated Protein PDZ domain 2 (Mus musculus (Mouse)), Q6RHR9
# Sequence (Q6RHR9 455-558): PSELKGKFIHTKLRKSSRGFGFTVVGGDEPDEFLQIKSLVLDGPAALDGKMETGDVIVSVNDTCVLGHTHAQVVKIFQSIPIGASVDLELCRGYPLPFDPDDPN
# ASSAY_PROCEDURE: G assay titration, PDZ 0.1 ug/ml
ATTRIBUTE_MEASURED: Kd (µM)

BINDER	MEASUREMENT_UNIT	OBS_VALUE
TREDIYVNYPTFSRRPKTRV (modifications not checked) [DNAM-1]	µM	4
